Ok so here's the combined literature set: IC50 for Mast/stem cell growth factor receptor Kit (Homo sapiens, UniProt P10721).

Some solved entries appear below for comparison.
molecule=O=C(c1c(F)ccc(NS(=O)(=O)c2ccc3oc(=O)ccc3c2)c1F)c1c[nH]c2ncc(Cl)cc12 property_measured=IC50 value="≤ 10 µM"
molecule=CN1CCN(Cc2cc(NC(=O)c3ccc4c(c3)CN(c3cccnc3)CC4)cc(C(F)(F)F)c2)CC1 property_measured=IC50 value="> 10 µM"
molecule=CCN1CCC(Nc2ccc3c(c2)/C(=C(\c2ccc(C)cc2)c2ncc[nH]2)C(=O)N3)CC1 property_measured=IC50 value="0.05 to 0.5 µM"

Q: Reported IC50 for Mast/stem cell growth factor receptor Kit (Homo sapiens, UniProt P10721), given C#Cc1cnc2[nH]cc(C(=O)c3c(F)ccc(NS(=O)(=O)CCC)c3F)c2c1 ?
Result: ≤ 10 µM

Q: Please state recorded IC50 (tested on Mast/stem cell growth factor receptor Kit (Homo sapiens, UniProt P10721)) of COC(=O)/C=C/c1cnc2[nH]cc(C(=O)c3c(F)ccc(NS(=O)(=O)c4ccc(C(F)(F)F)cc4)c3F)c2c1
Result: ≤ 10 µM

Q: Return IC50 measured with Mast/stem cell growth factor receptor Kit (Homo sapiens, UniProt P10721) given this molecule: CC(C)CS(=O)(=O)Nc1ccc(F)c(C(=O)c2c[nH]c3ncc(-c4cnn(C)c4)cc23)c1F
Result: ≤ 10 µM

Q: Report IC50 for CCCC(=O)Nc1ccc(F)c(C(O)c2c[nH]c3ncc(OC)cc23)c1F (stereo not shown) tested on Mast/stem cell growth factor receptor Kit (Homo sapiens, UniProt P10721).
Result: ≤ 10 µM
